Values were extracted from patent US9255101B2.

- TESTED SYSTEM: UniProt:Q9H3N8
- PROCEDURE SUMMARY: biochemical
Structures can show the parent of a compound that is named as a salt.
Here, each record is paired with measured Ki data.

MOLECULE	Ki
CN1CCC(OC2c3ccccc3CCn3cc(-c4ccsc4)nc32)CC1 (stereo not shown)	< 300 nM
CN1CCC(OC2c3ccccc3CCn3cc(-c4ccc(CSCCNC(=O)OC(C)(C)C)cc4)nc32)CC1 (stereo not shown)	< 300 nM
Cc1c(-c2ccc(N3CCN(C(C)C)C3=O)cc2)nc2n1CCc1ccccc1C2OC1CCN(C)CC1 (stereo not shown)	< 30 nM

Please look at the following molecule next.
I am curious: what Ki value has been reported for C=C(C)Cc1cn2c(n1)C(OC1CCN(C)CC1)c1ccccc1CC2 (stereo not shown) [Example 70, oxalate] ?
< 300 nM

====

In what follows, each item is paired with its pKi for human H4 receptor (Homo sapiens).
pKi: −log10 of the molar value.

Some compounds with known pKi results, for comparison:
COMPOUND	pKi
CN1CCC(OC2c3ccccc3CCn3cc(C#Cc4cccnc4)nc32)CC1 (stereo not drawn)	> 6.00
Cc1ccc(-c2cn3c(n2)C(OC2CCN(C)CC2)c2ccccc2CC3)s1 (stereo not drawn)	> 6.52

Please look at the following compound next.
I am curious: what pKi value has been reported for Cc1c(-c2ccc(NS(=O)(=O)C3CC3)cc2)nc2n1CCc1ccccc1C2OC1CCN(C)CC1 (stereo not drawn) ?
> 6.52

====

- TESTED SYSTEM: human H4 receptor (Homo sapiens, UniProt Q9H3N8)
- Sequence (Q9H3N8 whole entry): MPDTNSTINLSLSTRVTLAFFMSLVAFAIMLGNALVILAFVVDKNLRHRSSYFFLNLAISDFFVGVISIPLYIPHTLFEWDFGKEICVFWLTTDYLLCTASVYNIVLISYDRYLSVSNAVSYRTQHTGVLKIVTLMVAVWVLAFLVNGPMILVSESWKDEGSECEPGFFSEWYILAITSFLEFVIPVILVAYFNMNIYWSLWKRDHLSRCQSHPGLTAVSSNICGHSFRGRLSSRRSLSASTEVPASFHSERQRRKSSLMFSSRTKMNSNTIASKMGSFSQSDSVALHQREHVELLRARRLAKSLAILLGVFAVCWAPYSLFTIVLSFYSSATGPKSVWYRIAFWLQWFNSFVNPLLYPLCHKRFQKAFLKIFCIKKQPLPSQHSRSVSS
- PROCEDURE SUMMARY: biochemical
pKi: −log10 of the molar value.
ENDPOINT LABEL: pKi

Some compounds with known pKi results, for comparison:
COMPOUND	pKi
CC(C)Cc1ccc(-c2cn3c(n2)C(OC2CCN(C)CC2)c2ccccc2CC3)cc1 (centres unmarked)	> 7.52
CN1CCC(OC2c3ccccc3CCn3c2nc(-c2ccccc2)c3I)CC1 (centres unmarked)	> 7.52

Please look at the following compound next.
I am curious: what pKi value has been reported for CN1CCC(OC2c3cccc(-c4cccc(N)c4)c3CCn3cc(-c4ccccc4)nc32)CC1 (centres unmarked) ?
> 6.00

====

Here, each record is paired with measured pKi data.
- TESTED SYSTEM: UniProt:Q9H3N8
- PROCEDURE SUMMARY: biochemical
pKi: −log10 of the molar value. Counter-ions that a name gives are not always drawn.

Some compounds with known pKi results, for comparison:
COMPOUND	pKi
Cc1c(-c2ccc(NC(=O)OC(C)(C)C(Cl)(Cl)Cl)cc2)nc2n1CCc1ccccc1C2OC1CCN(C)CC1 (centres unmarked) [Example 175]	> 7.52
CN1CCC(OC2c3ccccc3CCn3cc(-c4ccc(CN5CCOC5=O)cc4)nc32)CC1 (centres unmarked) [Example 181]	> 6.52
CN1CCC(OC2c3ccccc3CCn3cc(-c4ccccc4CO)nc32)CC1 (centres unmarked) [Example 179, oxalate]	> 6.52
CN1CCC(OC2c3ccccc3CCn3cc(C4=CCCC4)nc32)CC1 (centres unmarked) [Example 65]	> 6.52
CN1CCC(OC2c3ccccc3CCn3cc(-c4ccccc4)nc32)CC1 (centres unmarked) [Example 4]	> 6.52

So what pKi did CN1CCC(OC2c3ccccc3CCn3cc(SC4CCN(C(=O)OC(C)(C)C)CC4)nc32)CC1 (centres unmarked) [Example 114] get with UniProt:Q9H3N8?
> 6.52

So what pKi did CN1CCC(OC2c3ccccc3CCn3cc(-c4ccc(C(F)F)cc4)nc32)CC1 (centres unmarked) [Example 69] get with UniProt:Q9H3N8?
> 7.52

So what pKi did CN(C)CCOC1c2ccccc2CCn2c1nc(I)c2I (centres unmarked) [Example 264] get with UniProt:Q9H3N8?
> 6.00

====

- TESTED SYSTEM: human H4 receptor (Homo sapiens, UniProt Q9H3N8)
- PROCEDURE SUMMARY: biochemical
Structures can show the parent of a compound that is named as a salt.
Here, each record is paired with measured Ki data.

Some compounds with known Ki results, for comparison:
COMPOUND	Ki
Cc1c(-c2ccc(SCCNC(=N)N)cc2)nc2n1CCc1ccccc1C2OC1CCN(C)CC1 (centres unmarked) [Example 211]	< 30 nM
Cc1c(-c2ccc(C3CCN(C(=O)OC(C)(C)C)CC3)cc2)nc2n1CCc1ccccc1C2OC1CCN(C)CC1 (centres unmarked) [Example 177]	< 30 nM
Cc1ccc(-c2cn3c(n2)C(OC2CCN(C)CC2)c2ccccc2CC3)c(F)c1 (centres unmarked) [Example 82]	< 300 nM
CN1CCC(OC2c3ccccc3CCn3cc(I)nc32)CC1 (centres unmarked) [Example 2]	< 300 nM
CN1C2CCC1CC(OC1c3ccccc3CCn3c1nc(I)c3I)C2 (centres unmarked) [Example 269]	< 1000 nM
CN1CCC(OC2c3ccccc3CCn3cc(-c4nccs4)nc32)CC1 (centres unmarked) [Example 66, oxalate]	< 300 nM
Ic1nc2n(c1I)CCc1ccccc1C2OC1CN2CCC1CC2 (centres unmarked) [Example 271, oxalate]	< 1000 nM
CN1CCC(OC2c3ccccc3CCn3cc(-c4ccncc4)nc32)CC1 (centres unmarked) [Example 44, oxalate]	< 1000 nM

I am curious: what Ki value has been reported for Cc1c(-c2ccc(SCc3ccccc3)cc2)nc2n1CCc1ccccc1C2OC1CCN(C)CC1 (centres unmarked) [Example 164, oxalate] ?
< 30 nM

I am curious: what Ki value has been reported for CN1CCC(OC2c3ccccc3CCn3cc(C=Cc4ccsc4)nc32)CC1 (centres unmarked) [Example 112] ?
< 30 nM

I am curious: what Ki value has been reported for CN1CCC(OC2c3ccccc3CCn3cc(-c4ccco4)nc32)CC1 (centres unmarked) [Example 24] ?
< 300 nM

I am curious: what Ki value has been reported for CCOC(=O)c1c(C)nc2n1CCc1ccccc1C2OC1CCN(C)CC1 (centres unmarked) [Example 116] ?
< 300 nM

I am curious: what Ki value has been reported for Cc1c(-c2ccc(C(=O)NCCO)cc2)nc2n1CCc1ccccc1C2OC1CCN(C)CC1 (centres unmarked) [Example 217] ?
< 300 nM

I am curious: what Ki value has been reported for Cc1c(-c2ccc(Cl)cc2)nc2n1CCc1ccccc1C2OC1CCN(C)CC1 (centres unmarked) [Example 155] ?
< 30 nM

I am curious: what Ki value has been reported for Cc1ccc(-c2cn3c(n2)C(OC2CCN(C)CC2)c2ccccc2CC3)c(C)c1 (centres unmarked) [Example 61] ?
< 300 nM

I am curious: what Ki value has been reported for CN1CCC(OC2c3ccccc3CCn3cc(C4=CCN(C(=O)OC(C)(C)C)CC4)nc32)CC1 (centres unmarked) [Example 74, oxalate] ?
< 300 nM

I am curious: what Ki value has been reported for CN1CCC(OC2c3ccccc3CCn3cc(CCCCc4ccccc4)nc32)CC1 (centres unmarked) [Example 129, oxalate] ?
< 30 nM

====

- TESTED SYSTEM: human H4 receptor (Homo sapiens)
- PROCEDURE SUMMARY: biochemical
Counter-ions that a name gives are not always drawn.
ENDPOINT LABEL: IC50

Some molecules with known IC50 results, for comparison:
MOLECULE	ENDPOINT LABEL	TEST RESULT
Cc1c(-c2ccc(N(C)C(=O)OC(C)(C)C)cc2)nc2n1CCc1ccccc1C2OC1CCN(C)CC1 (stereo not shown) [Example 125]	IC50	< 30 nM
Cc1ccc(-c2cn3c(n2)C(OC2CCN(C)CC2)c2ccccc2CC3)cc1 (stereo not shown) [Example 5]	IC50	< 300 nM
C=C(C)Cc1cn2c(n1)C(OC1CCN(C)CC1)c1ccccc1CC2 (stereo not shown) [Example 70, oxalate]	IC50	< 300 nM
Cc1c(-c2ccc(SCc3ccccc3)cc2)nc2n1CCc1ccccc1C2OC1CCN(C)CC1 (stereo not shown) [Example 164, oxalate]	IC50	< 30 nM
Cc1c(C2=CCCCC2)nc2n1CCc1ccccc1C2OC1CCN(C)CC1 (stereo not shown) [Example 226]	IC50	< 30 nM

I am curious: what IC50 value has been reported for Cc1c(-c2ccccc2)nc2n1CCc1ccccc1C2OC1CCN(C)CC1 (stereo not shown) [Example 103] ?
< 30 nM

I am curious: what IC50 value has been reported for Cc1cccc(-c2cn3c(n2)C(OC2CCN(C)CC2)c2ccccc2CC3)c1 (stereo not shown) [Example 6] ?
< 300 nM

I am curious: what IC50 value has been reported for CCCc1ccc(-c2cn3c(n2)C(OC2CCN(C)CC2)c2ccccc2CC3)cc1 (stereo not shown) [Example 22] ?
< 300 nM

I am curious: what IC50 value has been reported for Cc1c(-c2cccc(F)c2)nc2n1CCc1ccccc1C2OC1CCN(C)CC1 (stereo not shown) [Example 143] ?
< 30 nM

I am curious: what IC50 value has been reported for Cc1c(-c2cccc(Cl)c2)nc2n1CCc1ccccc1C2OC1CCN(C)CC1 (stereo not shown) [Example 145] ?
< 30 nM
